Recorded IC50 by entry
tested on: CV-1 cells; test: selective killing assay, colony number reduced to 50% of control, normal monkey kidney epithelial cell line CV-1; assay type: cell-based; conditions: Primates, CV-1, 24 h, Table VII; 24 hours treatment
Give the value; after it, write the unit.

1. CCn1c(=Cc2oc3ccc4ccccc4c3[n+]2CC)sc(=C2Oc3c(ccc4ccccc34)N2C)c1=O
6 µg/mL

[ask] Query: IC50; subject: CCn1c(=Cc2oc3c4ccccc4ccc3[n+]2CC)sc(=C2Oc3ccc4ccccc4c3N2C)c1=O
[reply] 6 µg/mL

[ask] Request: CCn1c(=Cc2oc3cc4ccccc4cc3[n+]2CC)sc(=C2Sc3c(ccc4ccccc34)N2C)c1=O
[reply] 8 µg/mL

[ask] Item: CCn1c(=C2CCC[n+]3c2sc2ccccc23)sc(=C2Sc3ccccc3N2C)c1=O
[reply] 20 µg/mL

[ask] Then CCn1c(=Cc2cc[n+](CC)c3ccccc23)sc(=C2C=Cc3ccccc3N2C)c1=O ?
[reply] 6 µg/mL

[ask] Continue with CCn1c(=Cc2sc3c([n+]2CC)-c2ccccc2CC3)sc(=C2Oc3ccc(Cl)cc3N2C)c1=O
[reply] 6 µg/mL

[ask] Please answer likewise for CCn1c(=Cc2oc3c4ccccc4ccc3[n+]2CC)sc(=C2Sc3c(ccc4ccccc34)N2C)c1=O
[reply] 20 µg/mL

---

Tested on: MCF-7 cells
Assay: colony assay of Example 1 with human breast carcinoma MCF-7 cell line
Format: cell-based
Conditions: CV-1/MCF-7
From the text: The control received culture media only.
Assay endpoint: Selectivity
Lab note: record just the number, no unit beside it.

1) CCn1c(=Cc2oc3ccc4ccccc4c3[n+]2CC)sc(=C2Oc3c(ccc4ccccc34)N2C)c1=O
200

[ask] Data request, read-out Selectivity, for CCn1c(=CC2=[N+](CC)CCS2)sc(=C2SC3=C(CCCC3)N2C)c1=O
[reply] 200

[ask] Same question for CCn1c(=C2CC[n+]3c2sc2ccccc23)sc(=C2Sc3ccccc3N2C)c1=O please.
[reply] 200

[ask] Would you kindly repeat that for CCn1c(=Cc2oc3c4ccccc4ccc3[n+]2CC)sc(=C2Oc3ccc4ccccc4c3N2C)c1=O ?
[reply] 200

[ask] Also, CCn1c(=Cc2sc3ccc4ccccc4c3[n+]2CC)sc(=C2SCCN2C)c1=O please.
[reply] 200

---

System: CV-1 cells
Assay: selective killing assay, colony number reduced to 50% of control, normal monkey kidney epithelial cell line CV-1
Format: cell-based
Conditions: Primates, CV-1, 24 h, Table VII; 24 hours treatment
Source text: The control received culture media only.
Recorded measurements of IC50, one per entry
Write it as a number; the unit µg/mL goes unstated.

1) CCn1c(=Cc2oc3ccccc3[n+]2C)sc(=C2Sc3ccccc3N2C)c1=O
20
2) CCn1c(=Cc2scc[n+]2CC)sc(=C2Oc3ccc(-c4ccccc4)cc3N2C)c1=O
10

As a next step, examine the molecule that follows.
[ask] Need IC50, item CCn1c(=Cc2sc3ccc4ccccc4c3[n+]2CC)sc(=C2Oc3ccc(Cl)cc3N2C)c1=O
[reply] 20
